- Test system: DU-145 prostate
- Method Description: NCI-60 one-dose screen, 48 h (100 = growth as untreated, 0 = no growth, -100 = all killed)
- Condition Label: 10 µM unless noted
The panel holds about 83,000 compounds, 20% with a hit somewhere; the sample as a whole holds those more often. Active and inactive are the calls of the source. How the source made its calls: active means growth percent below 10; inactive means the rest.
growth overview

Compound: CCCCn1c(Cc2ccc(Cl)cc2)nc2cc(OC)c(OC)cc2c1=O
Measured Target: DU-145 prostate
growth: 75.5% (inactive)
//
Compound: Cn1c(=O)c2nc(SCc3ccccc3)n(C)c2n(C)c1=O
Measured Target: DU-145 prostate
growth: 117% (inactive)
//
Compound: c1cnc2ccc3ncccc3c2c1
Measured Target: DU-145 prostate
growth: 117% (inactive)
//
Compound: CCOC(=O)C(C(C)=O)c1nc2sc3cc(Cl)ccc3n2c(=N)c1C#N (centres undefined)
Measured Target: DU-145 prostate
growth: 109% (inactive)
//
Compound: CCOC(=O)c1c2c(c(C)n1Cc1ccc(OC)cc1)-c1nc(N)ncc1CC2
Measured Target: DU-145 prostate
growth: 116% (inactive)
//
Compound: COc1ccc(Cn2cc3c(c2-c2ccccc2)CCc2cncnc2-3)cc1
Measured Target: DU-145 prostate
growth: 72.9% (inactive)
//
Compound: CCCCCCC(C)(O)c1ccccc1 (centres undefined)
Measured Target: DU-145 prostate
growth: 118% (inactive)
//
Compound: Cc1cc(Cl)ccc1Nc1nc(C(F)(F)F)ccc1C(=O)NCC(=O)N/N=C/c1c(Cl)cccc1Cl
Measured Target: DU-145 prostate
growth: 49.9% (inactive)
//
Compound: O=C1/C(=C/c2ccc3cccc(Cl)c3n2)SC(=S)N1CCc1ccc(O)cc1
Measured Target: DU-145 prostate
growth: 101% (inactive)
//
Compound: Cc1cc(NC(=O)Nc2cccc3ccccc23)no1
Measured Target: DU-145 prostate
growth: 118% (inactive)
//
Compound: Oc1ccc(Cc2ccc(O)c(C3CC(c4ccc(Cl)cc4)=NN3)c2)cc1C1CC(c2ccc(Cl)cc2)=NN1 (centres undefined)
Measured Target: DU-145 prostate
growth: 32.6% (inactive)
//
Compound: CCN(CC)c1ccc(N=Nc2cc(Cl)ccc2Cl)c(NC(=O)CCC(=O)O)c1
Measured Target: DU-145 prostate
growth: 108% (inactive)
//
Compound: CC(C)COCC(CN(Cc1ccccc1)c1ccccc1)N1CCCC1 (centres undefined)
Measured Target: DU-145 prostate
growth: 70% (inactive)
//
Compound: Cc1c(C(N)=O)sc2c1c(=O)n(Cc1ccccc1)c1nnc(S(=O)(=O)CC(=O)Nc3ccc(Cl)cc3)n21
Measured Target: DU-145 prostate
growth: 43.9% (inactive)
//
Compound: C[n+]1ccc(Nc2ccc(NC(=O)c3ccc(Nc4cc[n+](C)c5ccc(N)cc45)cc3)cc2)cc1
Measured Target: DU-145 prostate
growth: 119% (inactive)
//
Compound: CCS(=O)(=O)OCCCl
Measured Target: DU-145 prostate
growth: 116% (inactive)
//
Compound: COc1cc2c(C#N)n3c(c2cc1OC)C(=O)C(c1ccccc1)Oc1ccccc1-3 (centres undefined)
Measured Target: DU-145 prostate
growth: 72.8% (inactive)
//
Compound: COc1ccc2c(c1)C(=O)c1c-2c(OCCN(C)C)nc2cc(OC)ccc12
Measured Target: DU-145 prostate
growth: 29% (inactive)
//
Compound: O=C1C(Cl)=C(N=Nc2c(Cl)c(O)c3ccccc3c2O)C(=O)c2ccccc21
Measured Target: DU-145 prostate
growth: 81.3% (inactive)
//
Compound: CCCCCCCC/C=C/CCCCCCCC1=NC(C)(C)CN1CCO
Measured Target: DU-145 prostate
growth: 64.5% (inactive)
//
Compound: CC(=O)c1ccc2c3c(n(C)c2c1)CCCC3
Measured Target: DU-145 prostate
growth: 98.3% (inactive)
//
Compound: COc1ccc(OC)c(/C=C/c2nc(=S)n(-c3ccc(Cl)cc3)[nH]2)c1
Measured Target: DU-145 prostate
growth: 87.6% (inactive)
//
Compound: CSc1nc2c(c(=O)n1C)C(c1ccccc1)C1=C(N2)/C(=C/c2ccccc2)CCC1 (centres undefined)
Measured Target: DU-145 prostate
growth: 72.2% (inactive)
//
Compound: NCCCc1nnc(CCC(=O)c2nc3ccccc3[nH]2)o1
Measured Target: DU-145 prostate
growth: 115% (inactive)
//
Compound: NC(=O)c1ccccc1NC(=O)c1ccccc1Cl
Measured Target: DU-145 prostate
growth: 113% (inactive)
//
Compound: CCN(CC)CCOc1ccc(C2=C(c3ccccc3)CCc3cc(OC)ccc32)cc1
Measured Target: DU-145 prostate
growth: 41.3% (inactive)
//
Compound: Cc1nn(-c2ccc(Br)cc2)c2nc3c(nc12)C(=O)C(=O)c1ccccc1-3
Measured Target: DU-145 prostate
growth: 124% (inactive)
//
Compound: COc1cc2c(cc1OCCCOc1ccc(-c3cc4ccccc4c4ccccc34)cc1)N=C[C@@H]1CCCN1C2=O
Measured Target: DU-145 prostate
growth: -35.6% (active)
//
Compound: O=c1c(O)cccn1CCCNCCCN(CCCn1cccc(O)c1=O)CCCn1cccc(O)c1=O
Measured Target: DU-145 prostate
growth: 112% (inactive)
//
Compound: CC(C)C(=O)Cc1cnccn1
Measured Target: DU-145 prostate
growth: 111% (inactive)
//
Compound: CN(C)c1cccc2c(S(=O)(=O)N[C@H]3CC[C@H]4[C@@H]5CCc6cc(O)ccc6[C@H]5CC[C@]34C)cccc12
Measured Target: DU-145 prostate
growth: 24% (inactive)
//
Compound: N#Cc1c2ccccc2c2n1-c1ccccc1OC(c1ccccc1)C2=O (centres undefined)
Measured Target: DU-145 prostate
growth: 56.7% (inactive)
//
Compound: O=C1/C(=C/c2ccc([N+](=O)[O-])o2)Oc2ccc(Cl)cc21
Measured Target: DU-145 prostate
growth: 35.7% (inactive)
//
Compound: COc1ccc(C2=NN(C(=O)c3cc(OC)c(OC)c(OC)c3)C(c3ccc(C#N)cc3)C2)cc1OC (centres undefined)
Measured Target: DU-145 prostate
growth: 5.75% (active)
//
Compound: O=C1CC(=O)N(c2ccccc2)O1
Measured Target: DU-145 prostate
growth: 105% (inactive)
//
Compound: CCCCCCCCCCSc1ncnc2nc[nH]c12
Measured Target: DU-145 prostate
growth: 75% (inactive)
//
Compound: OCCOc1c(Cl)cc(Cl)cc1Cl
Measured Target: DU-145 prostate
growth: 115% (inactive)
//
Compound: COc1cc(C2CC(=O)Nc3c2cc(Br)c2ccccc32)cc(Br)c1OC (centres undefined)
Measured Target: DU-145 prostate
growth: 64.7% (inactive)
//
Compound: CC(C)c1ccc(C(=O)Nc2sc3c(CN(C)C)c(O)ccc3c2C(N)=O)cc1
Measured Target: DU-145 prostate
growth: 51.9% (inactive)
//
Compound: COc1ccc(/C=C2\COc3ccc(O)c(O)c3C2=O)cc1OC
Measured Target: DU-145 prostate
growth: 6.44% (active)
//
Compound: COc1cccc(C2C(C#N)=C(N)Oc3cc(OC)ccc32)c1 (centres undefined)
Measured Target: DU-145 prostate
growth: -15.2% (active)
//
Compound: NNC(=O)C1CC2c3ccccc3C1c1ccccc12 (centres undefined)
Measured Target: DU-145 prostate
growth: 115% (inactive)
//
Compound: CC1=C(C(=O)Nc2ccccc2)C(c2ccc3c(c2)OCCO3)NC(=O)N1 (centres undefined)
Measured Target: DU-145 prostate
growth: 114% (inactive)
//
Compound: O=C1Nc2ccc(F)cc2/C1=C/c1nc(-c2ccc(F)cc2)n2ccccc12
Measured Target: DU-145 prostate
growth: 74.1% (inactive)
